# Tested on: Tumor cells H22
# PROTOCOL_NOTES: Anti-tumor effect in H22 tumor-bearing mice (alone and combined with PD-1 monoclonal antibody)
# Assay type: in vivo
# EXPERIMENTAL_CONDITIONS: female C57BL/6 mice; by tumor weight vs control group; compounds 150 mg/kg orally every day; PD-1 monoclonal antibody 10 mg/kg intraperitoneally every three days; combination: both
Examples of molecules with documented Tumor inhibition rate H22 follow.
MEASUREMENT_KIND: Tumor inhibition rate H22

- C[C@]12CC[C@@H](O)[C@]3(CO3)[C@@H]1C[C@@H]1C(CN(CCO)CCO)C(=O)O[C@@H]1C2.O=C(O)/C=C/C(=O)O (stereo partly shown): 31%
- CN(CCCO)CC1C(=O)O[C@@H]2C[C@@]3(C)CC[C@@H](O)[C@]4(CO4)[C@@H]3C[C@H]12.O=C(O)/C=C/C(=O)O (stereo partly shown): 39%
- CN(C)CC1C(=O)O[C@@H]2C[C@@]3(C)CC[C@@H](O)[C@]4(CO4)[C@@H]3C[C@H]12.O=C(O)/C=C/C(=O)O (stereo partly shown) [Control compound 7, reference compound]: 52%
- CN(CCO)CC1C(=O)O[C@@H]2C[C@@]3(C)CC[C@@H](O)[C@]4(CO4)[C@@H]3C[C@H]12.O=C(O)/C=C/C(=O)O (stereo partly shown): 26%

====

Examples of molecules with documented Tumor inhibition rate CT26 follow.
# Tested on: Tumor cells CT26
# PROTOCOL_NOTES: Anti-tumor effect in CT26 tumor-bearing mice (alone and combined with PD-1 monoclonal antibody)
# Assay type: in vivo
# EXPERIMENTAL_CONDITIONS: female Balb/c mice; by tumor weight vs control group; compounds 150 mg/kg orally every day; PD-1 monoclonal antibody 10 mg/kg intraperitoneally every three days; combination: both
# Excerpt: Tumor cells B16F10, LLC, PAN02, H22, CT26, MFC, and GL261 (purchased from Biological Industries) in good growth status were collected, separately washed twice with 1×PBS, and a total number of the cells was counted with a cell counter, and a cell solution was separately diluted with 1×PBS to obtain a cell suspension of 1×10^7 cells/mL. The mice used in this experiment were purchased from Beijing Vital River Laboratory (Beijing, China). […]
MEASUREMENT_KIND: Tumor inhibition rate CT26 (%)

• C[C@]12CC[C@@H](O)[C@]3(CO3)[C@@H]1C[C@@H]1C(CN(CCO)CCO)C(=O)O[C@@H]1C2.O=C(O)/C=C/C(=O)O (stereo partly shown) [Compound 5] = 52
• CN(CCO)CC1C(=O)O[C@@H]2C[C@@]3(C)CC[C@@H](O)[C@]4(CO4)[C@@H]3C[C@H]12.O=C(O)/C=C/C(=O)O (stereo partly shown) [Compound 4] = 31
• CN(CCCO)CC1C(=O)O[C@@H]2C[C@@]3(C)CC[C@@H](O)[C@]4(CO4)[C@@H]3C[C@H]12.O=C(O)/C=C/C(=O)O (stereo partly shown) [Compound 6] = 41
• CN(C)CC1C(=O)O[C@@H]2C[C@@]3(C)CC[C@@H](O)[C@]4(CO4)[C@@H]3C[C@H]12.O=C(O)/C=C/C(=O)O (stereo partly shown) [Control compound 7, reference compound] = 60

====

# System: Tumor cells MFC
# PROTOCOL_NOTES: Anti-tumor effect in MFC tumor-bearing mice (alone and combined with PD-1 monoclonal antibody)
# Type: in vivo
# EXPERIMENTAL_CONDITIONS: female BALB/c-nu/nu mice; by tumor weight vs control group; compounds 150 mg/kg orally every day; PD-1 monoclonal antibody 10 mg/kg intraperitoneally every three days; combination: both
Examples of compounds with documented Tumor inhibition rate MFC follow.
MEASUREMENT_KIND: Tumor inhibition rate MFC (%)

- C[C@]12CC[C@@H](O)[C@]3(CO3)[C@@H]1C[C@@H]1C(CN(CCO)CCO)C(=O)O[C@@H]1C2.O=C(O)/C=C/C(=O)O (stereo partly shown): 44
- CN(C)CC1C(=O)O[C@@H]2C[C@@]3(C)CC[C@@H](O)[C@]4(CO4)[C@@H]3C[C@H]12.O=C(O)/C=C/C(=O)O (stereo partly shown) [Control compound 7, reference compound]: 38
- CN(CCCO)CC1C(=O)O[C@@H]2C[C@@]3(C)CC[C@@H](O)[C@]4(CO4)[C@@H]3C[C@H]12.O=C(O)/C=C/C(=O)O (stereo partly shown): 52
- CN(CCO)CC1C(=O)O[C@@H]2C[C@@]3(C)CC[C@@H](O)[C@]4(CO4)[C@@H]3C[C@H]12.O=C(O)/C=C/C(=O)O (stereo partly shown): 27
